Values from ChEMBL document CHEMBL2417474

- measurementNotes: Growth inhibition of human Hs 578T cells after 48 hrs by sulforhodamine B assay
- Format: functional
quantityName: GI50 (nM)
Numbers only, in nM.

Quick request: GI50 for each listed item, please.
1. Cc1cc(O)ccc1C1=NN(c2ccc(S(C)(=O)=O)cc2)C(=O)CC1
2. Cc1ccc(C2=NN(c3ccc(S(C)(=O)=O)cc3)C(=O)CC2)cc1

**Result**
1. 4150
2. 460

Provide the reported GI50 of each entry below, same order.
1. O=c1[nH]cc(F)c(=O)[nH]1 [FLUOROURACIL]
2. CCc1ccc(C2=NN(c3ccc(S(C)(=O)=O)cc3)C(=O)CC2)cc1

**Result**
9770
830

====

- Test system: SR
- measurementNotes: Growth inhibition of human SR cells after 48 hrs by sulforhodamine B assay
- Assay type: functional
quantityName: GI50

>>> assayvalue("O=c1[nH]cc(F)c(=O)[nH]1 [FLUOROURACIL]")
"20 nM"
>>> assayvalue("CCc1ccc(C2=NN(c3ccc(S(C)(=O)=O)cc3)C(=O)CC2)cc1")
"5650 nM"
>>> assayvalue("Cc1ccc(C2=NN(c3ccc(S(C)(=O)=O)cc3)C(=O)CC2)cc1")
"290 nM"

Attention now shifts to the item below.
In plain terms, Cc1cc(O)ccc1C1=NN(c2ccc(S(C)(=O)=O)cc2)C(=O)CC1 has a documented GI50 of 3390 nM

====

So I've got a bunch of compounds here, and I need their inhibition in vivo at 50 µmol/kg values.
- Tested on: Rattus norvegicus
- measurementNotes: Antiinflammatory activity in Wistar rat assessed as inhibition of carrageenan-induced paw edema at 0.05 mmol/kg, po administered 30 mins prior challenge measured after 5 hrs
- Assay type: functional
Give bare numbers, in %.

Some solved cases for reference:
>>> assayvalue("Cc1cc(C2=NN(c3ccc(S(C)(=O)=O)cc3)C(=O)CC2)ccc1O")
60.5
>>> assayvalue("CS(=O)(=O)c1ccc(N2N=C(c3ccc(Cl)cc3)CCC2=O)cc1")
36.8
>>> assayvalue("Cc1ccc(-c2ncc(Cl)cc2-c2ccc(S(C)(=O)=O)cc2)cn1 [ETORICOXIB]")
86.8
>>> assayvalue("CS(=O)(=O)c1ccc(N2N=C(c3ccc(Br)cc3)CCC2=O)cc1")
31.5

// below: inhibition in vivo at 50 µmol/kg requested for another compound
So for CCc1ccc(C2=NN(c3ccc(S(C)(=O)=O)cc3)C(=O)CC2)cc1 , the logged inhibition in vivo at 50 µmol/kg turned out to be 65.7

====

Would you mind telling me the reported growth at 10 µM of each entry?
- Test system: MDA-MB-435
- measurementNotes: Growth inhibition of human MDA-MB-435 cells assessed as cell growth at 10 uM after 48 hrs by sulforhodamine B assay
- Format: functional
- reportedConditions: MDA-MB-435, 48 h, read-out: Activity
Answers are plain numbers, in %.

>>> assayvalue("CCc1ccc(C2=NN(c3ccc(S(C)(=O)=O)cc3)C(=O)CC2)cc1")
-24.3
>>> assayvalue("COc1ccc(C2=NN(c3ccc(S(C)(=O)=O)cc3)C(=O)CC2)cc1")
7.92
>>> assayvalue("Cc1cc(O)ccc1C1=NN(c2ccc(S(C)(=O)=O)cc2)C(=O)CC1")
-8.25

Just so you know, measured growth at 10 µM for Cc1ccc(C2=NN(c3ccc(S(C)(=O)=O)cc3)C(=O)CC2)cc1 came out at -61.2
